- ASSAY_INFO: Intrinsic clearance in rat hepatocytes assessed per 10^6 cells
- Format: ADME, cell-based, Hepatocyte
- RUN_CONDITIONS: read-out: CLH
OBSERVATION_TYPE: hepatocyte CLint (µL/min/1e6 cells)

1. Cc1ccc(C(=O)NC2CC2)cc1-n1ccnc(NC(C)(C)c2ccccc2OCCN2CCCC2)c1=O :: 157

[P] Cc1ccc(C(=O)NC2CC2)cc1-n1ccnc(N[C@@H](c2ccccc2)[C@@H](C)CN2CCN(C)CC2)c1=O
[Q] Cc1ccc(C(=O)NC2CC2)cc1-n1ccnc(N[C@@H](c2ccccc2)[C@@H](C)CN(C)C)c1=O
Quick one: lower hepatocyte CLint, P or Q ? State your choice using its label.
Q

* * *

- ASSAY_INFO: Half life in iv dosed dog
- Assay type: ADME, organism-based, Canis lupus familiaris
- RUN_CONDITIONS: in vivo
OBSERVATION_TYPE: half-life (h)
Your answer should be a plain number; it is taken to be in h.

# half-life of CNCCOc1ccccc1C(C)(C)Nc1nccn(-c2cc(C(=O)NC3CC3)ccc2C)c1=O = 6.6

* * *

- ASSAY_INFO: Distribution coefficient, logD of the compound at pH 7.4
- Format: physicochemical
- RUN_CONDITIONS: octanol/water
OBSERVATION_TYPE: logD

[I] Cc1ccc(C(=O)NC2CC2)cc1-n1ccnc(NC(C)(C)c2ccccc2OCCN2CCCC2)c1=O
[II] CNCCOc1ccccc1C(C)(C)Nc1nccn(-c2cc(C(=O)NC3CC3)ccc2C)c1=O
Could you tell me which of I and II has the lower logD reading? Return value: the label identifying the chosen record.
II
(II: 1.6, I: 2.3)

[I] Cc1ccc(C(=O)NC2CC2)cc1-n1ccnc(N[C@@H](C)c2ccccc2)c1=O
[II] Cc1ccc(C(=O)NC2CC2)cc1-n1ccnc(N)c1=O
[III] Cc1ccc(C(=O)NC2CC2)cc1-n1ccnc(N[C@@H](c2ccccc2)[C@@H](C)CN(C)C)c1=O
Ordering criterion: logD; begin with the maximum. Record the ranking as a list of labels in the requested order.
I, III, II

[1] CC[C@@H](Nc1nccn(-c2cc(C(=O)NC3CC3)ccc2C)c1=O)c1ccccc1OCCN1CCCC1
[2] Cc1ccc(C(=O)NC2CC2)cc1-n1ccnc(N[C@@H]2CCCc3ccccc32)c1=O
Lab notebook, comparison: 1 versus 2 , higher logD goes to which? Response format: the label of the selected entry.
2
(2: 3.7, 1: 2.3)

* * *

- ASSAY_INFO: Aqueous solubility of the compound at pH 7.4
- Type: physicochemical
- RUN_CONDITIONS: buffer, read-out: solubility
OBSERVATION_TYPE: solubility (µM)

// solved cases for solubility follow
1) Cc1ccc(C(=O)NC2CC2)cc1-n1ccnc(N[C@@H](c2ccccc2)[C@@H](C)CN(C)C)c1=O :: 843
2) Cc1ccc(C(=O)NC2CC2)cc1-n1ccnc(N[C@H](C)c2ccccc2)c1=O :: 734
3) Cc1ccc(C(=O)NC2CC2)cc1-n1ccnc(N[C@@H](c2ccccc2)[C@@H](C)CN2CCN[C@H](C)C2)c1=O :: 847
4) COc1ccccc1CNc1nccn(-c2cc(C(=O)NC3CC3)ccc2C)c1=O :: 258
5) Cc1ccc(C(=O)NC2CC2)cc1-n1ccnc(NCC2CCCCC2)c1=O :: 340
6) Cc1ccc(C(=O)NC2CC2)cc1-n1ccnc(N[C@@H](c2ccccc2)[C@@H](C)CN2CCN(C)CC2)c1=O :: 854

[a] Cc1ccc(C(=O)NC2CC2)cc1-n1ccnc(N[C@@H](c2ccccc2)[C@@H](C)CN2CCOCC2)c1=O
[b] CC[C@@H](Nc1nccn(-c2cc(C(=O)NC3CC3)ccc2C)c1=O)c1ccccc1OCCN1CCCC1
Higher solubility: a or b ? Choose, then provide that item's label.
b
(b: 800 µM, a: 216 µM)

The values you see were collected from ChEMBL document CHEMBL4725297.
